- test summary: in vitro
- Assay type: in vitro ADME
- assay setup: human, serum
Where no end group is shown, it is not given here.
value kind: remaining at 5 h, 10 µM

entry sequence | value kind | observed result
FLGALFRALSRLL [CL-1] | remaining at 5 h, 10 µM | > 95%
